Cited source: BigSolDB 2.1

Details: in methanol, 308.15 K
quantity kind: solubility (mole fraction)

# mol, observed value
rows = [
    ("N[C@H](Cc1c[nH]c2ccccc12)C(=O)O", 0.000421),
]

====

Details: in methanol, 283.15 K
quantity kind: solubility (mole fraction)

# mol, observed value
data = [
    ("N[C@H](Cc1c[nH]c2ccccc12)C(=O)O", 0.000179),
]
